assay: Solubility (physico-chemical properties); format: physicochemical; conditions: methanol
quantityMeasured: Solubility in methanol

Below: 4 molecules and their reported Solubility in methanol.
NC(=O)C(OC1OC(C(=O)O)C(O)C(O)C1O)C1OC(n2ccc(=O)[nH]c2=O)C(O)C1O (stereo not drawn) [A-500359J]; slightly soluble
COC1C(O)C(n2ccc(=O)[nH]c2=O)OC1C(OC1OC(C(=O)O)=CC(O)C1O)C(N)=O (stereo not drawn) [A-500359F]; slightly soluble
NC(=O)C(OC1OC(C(=O)O)=CC(O)C1O)C1OC(n2ccc(=O)[nH]c2=O)C(O)C1O (stereo not drawn) [A-500359H]; slightly soluble
COC1C(O)C(n2ccc(=O)[nH]c2=O)OC1C(OC1OC(C(N)=O)=CC(O)C1O)C(N)=O (stereo not drawn) [amide derivative of compound A-500359F]; slightly soluble

Input line: Give a short answer stating reported Solubility in methanol for COC(=O)C1=CC(O)C(O)C(OC(C(N)=O)C2OC(n3ccc(=O)[nH]c3=O)C(O)C2OC)O1 (stereo not drawn) [A-500359E] .
Output line: slightly soluble

Reference for the values: patent US6472384B1
